Target: T1, CRBN, Q96SW2;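 further: pooled lentiviral library of zinc finger degron-EGFP fusions in mCherry-positive Jurkat cells, FACS-sorted after compound exposure, with degron abundance counted by next-generation sequencing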
T1 chain: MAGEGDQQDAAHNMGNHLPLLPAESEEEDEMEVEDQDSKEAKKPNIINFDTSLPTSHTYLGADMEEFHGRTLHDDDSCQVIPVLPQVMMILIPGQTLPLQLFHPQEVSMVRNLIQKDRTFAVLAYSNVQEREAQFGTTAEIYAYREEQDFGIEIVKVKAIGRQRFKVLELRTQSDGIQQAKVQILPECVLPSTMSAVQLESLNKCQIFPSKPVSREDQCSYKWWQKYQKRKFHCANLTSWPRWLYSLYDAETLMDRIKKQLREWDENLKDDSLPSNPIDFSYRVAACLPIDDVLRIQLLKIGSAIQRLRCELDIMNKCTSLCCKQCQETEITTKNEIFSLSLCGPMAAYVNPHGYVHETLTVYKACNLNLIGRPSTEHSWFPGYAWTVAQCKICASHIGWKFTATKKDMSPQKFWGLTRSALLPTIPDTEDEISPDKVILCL
Assay: log2 fold change of degron read counts, EGFP-low vs EGFP+ sorted cells (limma voom), compound-induced degradation; higher = more compound-induced degradation of the degron-EGFP fusion; degrons are variants of IKZF1/3 zinc finger 2; compound dose not given here
Conditions: Jurkat; 18 h; compound: compound 19 (5-tert-butyl-thalidomide)
Over roughly 8,300 sequences, “log2 fold change of degron read counts, EGFP-low vs EGFP+ sorted cells (limma voom), compound-induced degradation” has its median near -1.1; the highest 2% begin near 3.2. This is one part of a sample in which the highest values are shown more often than they occur.
Parameter: log2 fold change of degron read counts. Scope: all listed entries.
reported-property: log2 fold change of degron read counts

sequence-text | measured-result
FECEVCGAVFTQKGNLLRHIKL [46F_47E_49E_50V_52G_53A_54V_55F_67L_, Q9UKT9] | -0.492
FDCNQCGATFTQKGNLLRHIKL [46F_47D_49N_50Q_52G_53A_54T_55F_67L_, Q9UKT9] | -2.56
FGCPICGRGFTQKGNLLRHIKL [46F_47G_49P_50I_52G_53R_54G_55F_67L_, Q9UKT9] | 2.07
FVCNICGAAFTQKGNLLRHIKL [46F_47V_49N_50I_52G_53A_54A_55F_67L_, Q9UKT9] | -0.113
